target: T1, Recombinant OspAST1 (residues 18-273) from B. burgdorferi B31 (Borreliella burgdorferi B31, UniProt P0CL66); assay: BLI; Octet RED96e; mAb captured on AHC sensors, three-fold dilution series of OspA (21.58 nM to 0.089 nM); PBS, 0.1% BSA, 0.01% Tween20; global 1:1 model; details: both partners purified
T1 construct: Outer surface protein A (OspA) serotype 1, B. burgdorferi B31, residues 18 to 273; Used for the crystal structures; also called OspA (18-273); outer surface protein A serotype 1; not shown: His10, N-terminal, cleaved; SUMO, N-terminal, cleaved
I'd appreciate it if you could supply pKd values for the items below.
Give bare numbers, as −log10 of the molar value.

The cases that follow already have their pKd on record.
221-5, recombinant human monoclonal IgG1 (antibody, V domains shown, rest human IgG1 constant region; IgG1; VH unmutated from germline HV5-51, VL derived from KV3-11; also called Class I Bin 1 mAb; source: Expi293, transiently transfected with VH and VL plasmids, purified (Protein A)) VH: EVQLVQSGAEVKKPGESLKISCKGSGYSFTSYWIGWVRQMPGKGLEWMGIIYPGDSDTRYSPSFQGQVTISADKSISTAYLQWSSLKASDTAMYYCARHLGIDYFFGMDVWGQGTTVTVSS VL: EIVLTQSPATLSLSPGERATLSCRASQSVSSYLAWYQQKPGQAPRLLIYDASTRDTGIPARFSGSGSGTDFTLTISSLEPEDFAVYYCQHHSNWYTFGQGTKLEIK : 9.28
857-2, recombinant human monoclonal IgG1 (antibody, V domains shown, rest human IgG1 constant region; IgG1; VH germline HV5-51, VL germline KV1-13; also called mAb 857-2; Class I Bin 1 mAb; source: Expi293, transiently transfected with VH and VL plasmids, purified (Protein A)) VH: EVQLVQSGEEVKKPGESLKISCKGSGYKFSSYWIGWVRQMPGKGLEWMGIIFPGDSDKRYSPSFQGQVTISADKSISTVYLQWSSLKASDTAMYYCARHITTHTYRGFFDFWGQGTLVTVSS VL: AIQLTQSPSSLSASVGDRVTITCRASQDISSALAWYQQKPGKAPKLLIYDVSSLESGVPSRFSGSGSGTDFTLTISSLQPEDFATYYCQQFNGYPHRLTFGGGTKVEIK : 9.52
221-11, recombinant human monoclonal IgG1 (antibody, V domains shown, rest human IgG1 constant region; IgG1; VH germline HV5-51, VL germline KV1-13; also called Class II Bin 1 mAb; source: Expi293, transiently transfected with VH and VL plasmids, purified (Protein A)) VH: EVQLVQSGAEVKKPGESLKISCQSSGYRFTIYWIGWVRQMPGKGLEWMGIIWPGDSDTRYSPSFQGQVTISADKSISTAYLQWSSLKASDTAMYYCVRGIGRYSNWFLDYWGQGTLVTVSS VL: AIQLTQSPSSLSASVGDRVTITCRASQGFSSALAWYQQKPGKAPKLLIYDASSLESGVPSRFSGSGSGTDFTLTISSLQPEDFATYYCQQFNSYPLTFGGGTKVEIK : 9.46

Turning now to a further record.
Value of measured pKd for the entry 227-1, recombinant human monoclonal IgG1 (antibody, V domains shown, rest human IgG1 constant region; IgG1; VH germline HV5-51, VL germline KV1-13; also called Class III Bin 1 mAb; source: Expi293, transiently transfected with VH and VL plasmids, purified (Protein A)) VH: EVQLVQSGAEVKMPGESLKISCEVSGYSFTSYWIGWVRQMPGKGLEWMGIIYPGDSDTRYSPSFQGQVTISADKSISTAYLQWSSLKASDTAMYYCTRSISRSGPGFSLSWFFDYWGQGTLVTVSS VL: AIQLTQSPSSLSASVGDRVTITCRASQGISNALAWYQQKPGKAPKLLIYDASSLERGVPSRFSGSGFGTDFTLTISSLQPEDFAIYYCQQFNGFPNTFGQGTRVEIK : 8.77

# credit: paper doi:10.64898/2025.12.24.696337
